Test: protein stability index of a GFP-peptide fusion (yeast GPS) (PSI 1-4); higher = more stable; sorted into four equal gates, so the index is relative within each strain
Conditions: doa10∆
Parameter threshold = 3. Response is Condition met when protein stability index meets or exceeds it, else Condition not met.

FLKEKDTVAELQAQLDY [FAS2]: Condition not met
VTKDTKKYSSKNKYGEI [SRP68]: Condition not met

## Task I'd appreciate it if you could say whether LNEAPFPEENIIDAKTR [MCD1] has protein stability index at least equal to 3.
## Result Condition met

## Task Record QQNIKFRRDFLLREYDI [YJL039C/NUP192] ; criterion: protein stability index no lower than 3. Met?
## Result Condition not met

## Task Hi, just wondering whether KENEESLTPTQSDSAKV [PRP28] shows protein stability index of 3 or higher.
## Result Condition met

## Task API: above_or_equal(metric=protein stability index, cutoff=3) for item GAISAVAATNTPIIFIG [SRP54]
## Result Condition not met

## Task Could you please find out whether ESKLKIDPDTKAPNAVV [RPB11] has protein stability index that meets 3 or exceeds it?
## Result Condition not met

## Task Please indicate if the recorded protein stability index for NEKLECISLGSTKLSRP [ITC1] meets or exceeds 3.
## Result Condition not met

## Task Is it the case that KLLTPQDMEAAKEVYKI [GAL11] has protein stability index reaching or exceeding 3?
## Result Condition met

## Task Tell me whether protein stability index is at least 3 here: PQIVVPDAQNELPKFIL [DIS3]
## Result Condition not met

## Task Form field: protein stability index at least 3? Entry: NLENHFKKSKIDHINEE [SCL1]
## Result Condition not met

* * *

Assay: protein stability index of a GFP-peptide fusion (yeast GPS) (PSI 1-4); higher = more stable; sorted into four equal gates, so the index is relative within each strain
Settings: ubr1∆
# binarize protein stability index: threshold 3 inclusive, high side rule met, low side rule not met

Solved cases (8 shown):
SIWGNGYSGYGNGITNT [SNF5]: rule met
TEVSRKSMKYVKKILPL [ECM29]: rule not met
IKCSQSSHLSDNDFIIN [POP5]: rule not met
TEDIRIRAQNFKSALAN [RRP6]: rule not met
TGNTTSKSAFSFGTANT [YOR098C/NUP1]: rule not met
LSHENNVMLEKIKDNKE [RPT5]: rule not met
KASTISRGAVSGQKAGL [RPL2A]: rule not met
YSSKPYKVDNMTRILPQ [RPN2]: rule not met

## Task Is it the case that ESSKALADSLDRCVDPE [DIS3] has protein stability index reaching or exceeding 3?
## Result rule not met

* * *

Assay: protein stability index of a GFP-peptide fusion (yeast GPS) (PSI 1-4); higher = more stable; sorted into four equal gates, so the index is relative within each strain
Conditions: doa10∆
Quick reference: protein stability index of the listed items.
Simply state the number, no unit and no words.

# count of solved cases: 4
LSILKGDYSQATVLSRK [RPN5]: 3.08
GRPRYDTFGEGIIITDQ [BRR2]: 3.02
KIQETELKIRSKTENVR [RPT6]: 2.35
SGNNYNDINISSIENNI [MED2]: 3.01

Consider the record given below.
## Task Report protein stability index for DVFTINPHQKDQLIISS [YML103C/NUP188] please.
## Result 1.56

Value source: the supplement of paper PMC9732359
